Test system: Vero (African green monkey kidney) cells
RECORDED_CONDITIONS: read-out: Cytotoxicity IC50 Vero
pIC50: −log10 of the molar value.
MEASURED_ATTRIBUTE: pIC50

[
  {
    "MOLECULE": "NCC1(c2ccccc2)CCCN1C(=O)c1ccc(Br)cc1 (stereo not shown) [Compound 10]",
    "ASSAYED_TARGET": "Vero (African green monkey kidney) cells",
    "RESULT": "< 4.00"
  }
]

meta.source: paper PMC8301260
